I'd be grateful if you could share measured IC50 for these entries.
experimental.system: α4β1 integrin (Jurkat T-cell adhesion to IL-1 stimulated endothelial cell monolayers) (Homo sapiens, UniProt P05556+P13612)
Construct: a T-cell line, Jurkat, known to express the α4β1 integrin
Sequence (P13612 34-1032): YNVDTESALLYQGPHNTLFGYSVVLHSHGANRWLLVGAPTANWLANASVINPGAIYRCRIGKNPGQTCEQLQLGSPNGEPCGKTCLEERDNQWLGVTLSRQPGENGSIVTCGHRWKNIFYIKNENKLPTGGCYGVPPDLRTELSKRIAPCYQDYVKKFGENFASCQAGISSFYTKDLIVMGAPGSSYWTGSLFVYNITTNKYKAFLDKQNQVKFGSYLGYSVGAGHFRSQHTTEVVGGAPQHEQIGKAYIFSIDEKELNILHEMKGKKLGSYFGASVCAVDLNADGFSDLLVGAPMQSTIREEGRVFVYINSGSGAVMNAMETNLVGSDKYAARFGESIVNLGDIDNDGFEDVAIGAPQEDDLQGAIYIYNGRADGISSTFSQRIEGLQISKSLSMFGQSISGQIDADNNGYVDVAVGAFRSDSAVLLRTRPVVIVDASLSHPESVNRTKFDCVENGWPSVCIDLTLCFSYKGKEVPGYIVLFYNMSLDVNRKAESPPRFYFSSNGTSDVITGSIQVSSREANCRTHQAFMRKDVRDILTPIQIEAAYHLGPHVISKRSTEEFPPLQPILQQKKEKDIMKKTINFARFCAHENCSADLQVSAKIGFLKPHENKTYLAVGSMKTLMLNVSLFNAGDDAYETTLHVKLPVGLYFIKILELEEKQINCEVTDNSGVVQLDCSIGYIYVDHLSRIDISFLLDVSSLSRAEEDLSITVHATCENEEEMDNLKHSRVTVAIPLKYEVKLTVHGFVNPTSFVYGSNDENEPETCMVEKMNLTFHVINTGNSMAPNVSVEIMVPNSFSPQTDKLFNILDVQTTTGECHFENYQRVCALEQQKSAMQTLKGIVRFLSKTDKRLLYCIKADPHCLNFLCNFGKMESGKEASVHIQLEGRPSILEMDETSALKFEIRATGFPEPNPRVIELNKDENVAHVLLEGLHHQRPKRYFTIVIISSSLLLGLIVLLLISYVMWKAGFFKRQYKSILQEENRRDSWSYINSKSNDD
Sequence (P05556 21-798): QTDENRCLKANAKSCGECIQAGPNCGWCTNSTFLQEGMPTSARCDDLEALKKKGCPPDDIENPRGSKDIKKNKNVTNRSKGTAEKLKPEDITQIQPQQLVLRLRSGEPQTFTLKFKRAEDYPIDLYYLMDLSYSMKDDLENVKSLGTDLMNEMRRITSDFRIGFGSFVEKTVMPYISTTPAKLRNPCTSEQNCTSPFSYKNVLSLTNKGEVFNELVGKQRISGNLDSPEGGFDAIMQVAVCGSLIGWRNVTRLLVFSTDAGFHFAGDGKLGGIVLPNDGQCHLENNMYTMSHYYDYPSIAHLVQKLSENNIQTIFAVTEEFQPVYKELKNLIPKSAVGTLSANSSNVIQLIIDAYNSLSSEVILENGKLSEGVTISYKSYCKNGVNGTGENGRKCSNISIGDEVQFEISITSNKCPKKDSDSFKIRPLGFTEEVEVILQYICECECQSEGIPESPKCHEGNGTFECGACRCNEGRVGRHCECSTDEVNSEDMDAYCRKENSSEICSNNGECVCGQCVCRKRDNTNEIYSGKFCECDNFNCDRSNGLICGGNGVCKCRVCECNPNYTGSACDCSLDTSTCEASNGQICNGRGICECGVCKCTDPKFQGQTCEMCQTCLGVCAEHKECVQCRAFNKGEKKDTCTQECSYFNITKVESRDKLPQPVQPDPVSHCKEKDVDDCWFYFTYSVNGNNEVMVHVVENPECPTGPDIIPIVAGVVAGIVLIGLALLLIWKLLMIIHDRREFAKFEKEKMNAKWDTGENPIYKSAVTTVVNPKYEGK
protocol.text: Jurkat-endothelial cell adhesion assay (Jurkat EC)
run.conditions: Jurkat cells on IL-1 stimulated human umbilical vein endothelial cells; read-out: JK/EC (Jurkat EC Assay IC50 value range)

What measured IC50 goes with O=C(Nc1ccc(C[C@H](NC(=O)[C@@H]2CSCN2C(=O)C2CCOC2)C(=O)O)cc1)c1c(Cl)cccc1Cl (stereo partly drawn) [Example 246] ?
250 to 1000 nM

And then O=C(O)CNC(=O)N1CCC[C@H]1C(=O)N[C@@H](Cc1ccc(NC(=O)c2c(Cl)cccc2Cl)cc1)C(=O)O [Example 232] , what is it?
≥ 1000 nM

Could you do the same for COC(=O)[C@H](Cc1ccc(NC(=O)c2c(Cl)cccc2Cl)cc1)NC(=O)[C@H]1N(C(=O)OC(C)(C)C)CSC1(C)C (relative stereo) [Example 17] , please?
≥ 1000 nM

Now consider O=C(O)[C@H](Cc1ccc(OCc2c(Cl)cccc2Cl)cc1)NC(=O)[C@H]1CSCN1C(=O)OCCN1CCCCC1 (relative stereo) [Example 152] and answer again.
≤ 250 nM

Please do the same for COCCC(=O)N1CCCC[C@@H]1C(=O)N[C@@H](Cc1ccc(NC(=O)c2c(Cl)cccc2Cl)cc1)C(=O)O [Example 249] as well.
250 to 1000 nM

Here is the next compound: COC(=O)[C@H](Cc1ccc(OCc2c(Cl)cccc2Cl)cc1)NC(=O)[C@H]1CSCN1C(=O)OC(C)(C)C (relative stereo) [Example 32]
≥ 1000 nM
